Tested On: Bcl-xL, Q07817
Sequence (Q07817 1-209): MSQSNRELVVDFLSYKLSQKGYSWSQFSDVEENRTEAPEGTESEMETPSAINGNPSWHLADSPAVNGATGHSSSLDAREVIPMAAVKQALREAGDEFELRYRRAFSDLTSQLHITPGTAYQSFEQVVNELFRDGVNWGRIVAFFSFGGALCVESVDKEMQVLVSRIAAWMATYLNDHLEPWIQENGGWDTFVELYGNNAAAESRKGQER
Experimental Details: peptide SPOT array, c-Myc-tagged receptor at 1 uM or 100 nM, anti-c-Myc-Cy3
Measured Metric: SPOT signal as a fraction of Bim BH3's signal on the same receptor and array

Q: For the binder shown here, EKVLIFGGDILKFALDALLALWRVER [ADCY10] , give the reported SPOT signal as a fraction of Bim BH3's signal on the same receptor and array.
Result: 0.04

(P) FDNAMLRARRLYQLAYDTYQEFEEAY [GH2]
(Q) DEHISYVATKDCHLGDQLEGVNTPRQ [EXOC5]
Q: Looking at recorded values for SPOT signal as a fraction of Bim BH3's signal on the same receptor and array, does P or Q come in lower? Your choice should be expressed through its label.
Result: Q

(I) VHKHSRLAEVLQLGSDILPQYKQEAP [KCNH1]
(II) LGRTGQVCLFLKRGLDQHALDQEQRD [ACAP3]
(III) CDLLGAKGKDILYILDHIFGDILKSK [NT5C2]
Q: Which order do these items take when sorted by rising SPOT signal as a fraction of Bim BH3's signal on the same receptor and array? List them. When ranking, write the labels in the order the request describes.
Result: III, I, II
